Let's look at some compounds and their measured pIC50.
Tested on: Plasmodium falciparum
Experiment: Hit confirmation in dose-response curve in NF54 pLDH assay, at 72h
Format: functional, organism-based
Design: timepoint 72 hour
Settings: NF54, Erythrocyte
In plain terms, pIC50 is the concentration in mol/L turned into minus its base-10 logarithm.

These recorded examples may help you get a feel for the data.
# compound, assayed target, pIC50
records = [
    ("CC(C)C(=O)Nc1ccc(-c2cc(-c3ccc(NC(=O)C(C)C)cc3)nc(-c3ccncc3)n2)cc1", "Plasmodium falciparum", 5.06),
    ("CCc1ccc(C2=C[C@@H](c3cccc(OC)c3)n3ncc(C(=O)Nc4ccc(C)cc4)c3N2)cc1", "Plasmodium falciparum", 5.06),
    ("Oc1cccc(CN[C@H]2CCCc3occc32)c1Cl", "Plasmodium falciparum", 5.56),
    ("CC1(C)Cc2nc3ccccc3c(NCc3ccccc3)c2[C@@H](O)C1", "Plasmodium falciparum", 5.40),
    ("CCc1cccc(NC(=O)N2CCN(C3=CC4=NC[C@H](C)N4C=N3)CC2)c1", "Plasmodium falciparum", 5.95),
    ("Cc1cccc2c(-c3cc(N)nc(N)n3)c[nH]c12", "Plasmodium falciparum", 5.92),
]

Form field: pIC50 recorded for "O=C(Nc1cnc(-n2ccnc2)nc1)C(c1ccccc1)c1ccccc1" with Plasmodium falciparum (enter value)
5.40

Given the entry "CC(C)c1ccc(-c2nc(CN3CCCCC3)cc(CN3CCCCC3)c2O)cc1" , what pIC50 was observed with Plasmodium falciparum?
5.62

// fetch Plasmodium falciparum pIC50 for "CNc1nc(Nc2ccc3c(c2)OCCO3)nc2ccccc12"
5.93

# returns recorded pIC50 (system: Plasmodium falciparum) for "CNCCc1c(-c2ccccc2)[nH]n(-c2ccccc2)c1=O"
5.55

Hi! What's the reported pIC50 for "COc1ccc(-[n+]2c(-c3ccc(-c4ccccc4)cc3)cn3c2COCC3)cc1" on Plasmodium falciparum?
5.62

What is its pIC50 for Plasmodium falciparum? Entry: "CN1CCC(N2CCN(Cc3ccc4cc(O)ccc4c3)CC2)CC1"
5.72

Request - read-out pIC50 | tested on Plasmodium falciparum | compound "c1ccc(C2=NN(c3ccc(-c4cc(-c5ccccc5)[n+](-c5ccccc5)c(-c5ccccc5)c4)cc3)[C@H](c3ccccc3)C2)cc1"
5.88

Lab note: need pIC50 with Plasmodium falciparum for entry CC1CC(C(=O)Nc2[nH]c(=O)ncc2F)CC(C)(C)C1 (stereo unspecified) , please look it up.
8.48

Test system Plasmodium falciparum; read-out pIC50; what value for "C[n+]1ccccc1/C=C/c1c[nH]c2ccccc12" ?
6.17

API: value(readout=pIC50, system=Plasmodium falciparum) for record Nc1nc(C2CC(N)C2)cc(N2CCC(Oc3ccccc3Cl)CC2)n1 (stereo unspecified)
5.39

Notebook entry, Plasmodium falciparum assay: pIC50 of "CCn1cnc2c(N3CCC[C@H](c4ccncc4)C3)ncnc21" = ?
6.10

----------
Tested on: Plasmodium falciparum
Experiment: Hit confirmation in dose-response curve in NF54 nanoGlo assay, at 72h
Assay type: functional, organism-based, Erythrocyte
Parameters: timepoint 72 hour
Conditions: Plasmodium falciparum, NF54, Erythrocyte, 72 h
assay readout: IC50 (nM)
The figure you give is taken to be in nM; do not add the unit.

Examples from the recorded data:
# compound, reported value
records = [
    ("COc1ccc(C(=O)Nc2ccc3c(c2)C(=O)Nc2cccnc2O3)cc1OC", 3160),
    ("COc1ccc2cccc(NC(=O)c3cc(-c4cc(OC)c(OC)c(OC)c4)n[nH]3)c2n1", 2190),
    ("CC1(C)CCC(Nc2ccc(C(N)=O)nn2)CC1", 490),
    ("CCN(CC)CC(O)COc1c(Br)cc(C(C)(C)c2cc(Br)c(OCC(O)CN(CC)CC)c(Br)c2)cc1Br (stereo not given)", 603),
    ("c1coc(CNc2nc(Nc3cccc4ccccc34)nc3ccccc23)c1", 2820),
    ("Cc1cnccc1NCCNC1CCN(c2ccc(Cl)cc2)CC1", 316),
    ("Cc1cnccc1NCCNC1CCN(c2ccc3c(c2)CCC3)CC1", 4570),
    ("CCC(CC)C(=O)Nc1cc(C2CC2)nn1-c1nc(-c2ccccc2)cc(=O)[nH]1", 2140),
]

Return reported IC50; argument: "N[C@H]1C[C@@H](c2cc(N3CCN(C4CCCCC4)CC3)nc(N3CCCC3)n2)C1"
2000

# input compound: "CN1CCN(C2(CNc3ccnc4ccccc34)CCCC2)CC1" ; wanted: its IC50
479
